Quick list: apparent KD of MS2 coat protein per entry.
Tested on: MS2 coat protein
Test: apparent KD of MS2 coat protein; designed switch direction (-1 OFF switch, 1 ON switch): -1; higher = weaker reporter binding
Conditions: input ligand: microRNA oligo, concentration not stated
Write the figure, then the unit, nothing else.

- AUACCACGAGGAUAUCGUCUAUAAUACAUGAGGAUCACCCAUGUUAUAUCUGUAAUGUUUCGAGAAGGCGUGUGUU [JR_E5_Sub084] (Eterna round: R96, puzzle: Exclusion 5): 15.4 nM
- AUCGUGCAGCUUUGCUGUACGAGUACAUGAGGAUCACCCAUGUAGGAUAUGGUACGCUUUGCGUGCUAGAAGGAUAUGAGAUUA [EX ENG3 1.48] (Eterna round: R96, puzzle: Exclusion NG 3): 28.5 nM

// query apparent KD of MS2 coat protein value for entry UACAUGAGGAUCACCCAUGUUUUGUCGUGUAUGGUACCCGUCUAGGAUAUCGUGUUAUUGGACCGCGAGAAGGAGAGUAUCAAU [Excl-NG3-LRO03] (Eterna round: R96, puzzle: Exclusion NG 3)
20.2 nM

// query apparent KD of MS2 coat protein value for entry AUAAAUCAUGUAGGAUAUGCGUGGAGAAACUAUGCAGAAGGACAUGAGGAUCACCCAUGUGCUUCCGUCUGCGUACAGAUGGUA [Mat - Exclusion NG 1 - Mod of JL - D9] (Eterna round: R96, puzzle: Exclusion NG 1)
20.1 nM

// query apparent KD of MS2 coat protein value for entry ACAUGAGGAGAAGGAUAUCUUUAGAGGGUUACCAGAGAAGGUCUAACAUGAGGAUCACCCAUGUCAUGAGGGUCUUGAAUGUUG [10th something] (Eterna round: R96, puzzle: Exclusion NG 1)
151 nM

Reference source for all entries: the supplement of paper PMC9170038
